Test system: EF1 (harA::erm)
assay-info: MIC by broth microdilution, E. faecalis OG1X harA disruption mutant
Type: cell-based, Enterococcus faecalis
protocol-conditions: EF1 (harA::erm), disruption mutant; broth microdilution, duplicate
observed-property: MIC (µg/mL)
Could you give me the number in µg/mL? Just the number is fine.

## Task Retrieve MIC on EF1 (harA::erm); query `CC1=C\[C@@H](O)CC(=O)Cc2nc(co2)C(=O)N2CCC=C2C(=O)O[C@H](C(C)C)[C@H](C)/C=C/C(=O)NC\C=C\1`
## Result 1.56

## Task Give MIC only, for `CC(=O)[C@H]1O[C@@H](Oc2ccc(/C=C(\C)C(=O)N[C@@H]3[C@H](O)[C@@H](O)[C@H]4OCO[C@H]4[C@@H]3O)cc2O)[C@@H](O)[C@@H]1O` , using EF1 (harA::erm) data.
## Result 7.8

Hello, the source for this data is patent US20030157491A1, in case you need it.
